Reported values of shrunken log2 fold change for individual entries
# Tested on: Escherichia coli TOP10;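 also: peptides expressed intracellularly from a pBAD plasmid library in pooled LB shake-flask culture, induced with 0.3% L-arabinose, DNA abundance read by NGS, three biological replicates, DESeq2 with apeglm shrinkage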
# measurement protocol: shrunken log2 fold change of peptide-encoding DNA abundance (4.5 h post-induction vs induction); higher = less antimicrobial activity (less host growth inhibition)
# condition context: time post-induction: 4.5 h; library: site-saturation at positions 5, 18, 19, 20
Just the number, please, no unit after it.

{"sequence input": "RRIRWRPPRLPRPRPRPFHDPRP", "shrunken log2 fold change": -0.285}
{"sequence input": "RRIRKRPPRLPRPRPRPDIQPRP", "shrunken log2 fold change": 0.867}
{"sequence input": "RRIRCRPPRLPRPRPRPGTIPRP", "shrunken log2 fold change": 0.00164}

# next sequence below
Item under review: `RRIRPRPPRLPRPRPRPGYVPRP` . Reported shrunken log2 fold change?
-0.401
